Reported EC50 values for a set of molecules
Test system: JAK-STAT signalling in HeLa cells
ASSAY: JAK-STAT signalling assay (OSM-triggered pSTAT1(2)-luciferase reporter in HeLa cells)
Type: cell-based
CONDITION_CONTEXT: Homo sapiens; HeLa cells, OSM-triggered pSTAT1(2)-luciferase reporter; read-out: STAT signalling EC50

# COMPOUND_STRING, EC50
records = [
    ("O=C(Nc1nc2cccc(-c3ccc(C(=O)N4CCC(c5cc6ccccc6[nH]5)CC4)cc3)n2n1)C1CC1", "101 to 500 nM"),
    ("O=C(Nc1nc2cccc(-c3ccc(C(=O)N4CCC(O)CC4)cc3)n2n1)C1CC1", "> 1000 nM"),
    ("O=C(Nc1nc2cccc(-c3ccc(CC(=O)N4CCCCC4)cc3)n2n1)C1CC1", "501 to 1000 nM"),
]

We next turn to a different molecule, shown below.
Query Cn1ccc(COc2ccc(-c3cccc4nc(NC(=O)C5CC5)nn34)cc2)n1 yields EC50 of > 1000 nM
